Reference for the values: paper PMC4303316

- study system: T1, EhRacC^Q65L (GTPase-deficient EhRacC mutant, GTP-bound) (Entamoeba histolytica (strain HM-1:IMSS), UniProt Q24816 1-182, Q65L)
- T1 sequence (looked up): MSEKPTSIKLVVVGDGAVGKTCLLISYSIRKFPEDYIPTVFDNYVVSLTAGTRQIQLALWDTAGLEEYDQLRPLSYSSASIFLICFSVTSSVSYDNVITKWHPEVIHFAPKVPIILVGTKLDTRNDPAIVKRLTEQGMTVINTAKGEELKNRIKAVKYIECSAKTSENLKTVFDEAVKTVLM
- method description: SPR
No end group written: not given here.
experimental readout: Kd (nM)
A number alone suffices; assume nM.

• His6-EhPAK4 PBD (p21 binding domain of Entamoeba histolytica p21-activated kinase 4) (domain or fragment, Entamoeba histolytica (strain HM-1:IMSS), UniProt C4LSU1 12-78, looked up) ELIISDPTDFEQITHVELGDSGLTGFPPEWREKLIKAGLTEAEINTNEDSAKLVAASGISNDNGNRT = 170

Could you now look at the following binder, please?
Ask | Fill blank: measured Kd of the binder His6-EhPAK5 PBD (p21 binding domain of Entamoeba histolytica p21-activated kinase 5) (domain or fragment, Entamoeba histolytica (strain HM-1:IMSS), UniProt C4MBQ2 105-161, looked up) His6-DISEPTDYHHLTHVAYEEGGFVGIPYEWENVFLACGITREEIKSNKEDAIKVLEFTQ is ____.
Reply | 1900
